Tested on: SK-MEL-2 melanoma
Assay: NCI tumour cell line growth inhibition, 48 h
Measured TGI, listed per entry.
QUANTITY: TGI

>>> result("O=C(O)c1ccc(Nc2nc3cc(C(F)(F)F)ccc3n3cccc23)cc1")
"> 100 µM"
>>> result("CCOC(=O)C(O)(C(=O)OCC)c1cc(C(C)(C)C)c(O)c(C(C)(C)C)c1")
"> 100 µM"
>>> result("COc1ccc(-n2c(=O)n(-c3ccccc3)c(=O)n2-c2ccc(OC)cc2)cc1")
"> 100 µM"
>>> result("C/C=C/COC(=O)CO[N+](=O)[O-]")
"> 100 µM"
>>> result("COc1cccc2c1C(=O)OC2c1cccc2ccccc12 (stereo unspecified)")
"> 100 µM"
>>> result("N#Cc1ccc2cc3c(cc2c1)OCO3")
"> 100 µM"
>>> result("O=C(Nc1sccc1S(=O)(=O)c1ccccc1)c1ccccc1")
"> 100 µM"
>>> result("Cc1cn(-c2ccc(S(C)(=O)=O)cc2)c(-c2ccc(Cl)cc2)n1")
"> 100 µM"
>>> result("Cc1cc(O)c(/C=N/C(=S)Nc2ccccc2)c(=O)o1")
"> 100 µM"
>>> result("CCOC(=O)c1cc(C2CCN(c3ccccc3)C2=O)c(C(=O)/C=C(/C)N)[nH]1 (stereo unspecified)")
"> 100 µM"
>>> result("O=C(/C=C/C12c3ccccc3C(c3ccccc31)C1C(=O)NC(=O)C12)c1ccc(Cl)cc1 (stereo unspecified)")
"3.71 µM"
>>> result("O=C(c1ccccc1)n1c(-c2ccccc2)cs/c1=N\\S(=O)(=O)c1ccc(N2N=C3c4ccccc4CC3C2c2cccs2)cc1 (stereo unspecified)")
"> 100 µM"
>>> result("CC1=C[C@H]2C[C@H](C)[C@H]3CC[C@H](C)[C@]4(C1)C(=O)C(O)=C(C)C(=O)[C@@]324")
"> 100 µM"
>>> result("N#Cc1c(-c2ccc(Cl)cc2)c2c(N=Nc3c(O)ccc4ccccc34)[nH]nc2[nH]c1=O")
"0.943 µM"
>>> result("COc1ccc(N2C(=O)C3c4[nH]c5ccc(F)cc5c4C4CCC(C(C)(C)C)CC4C3C2=O)cc1 (stereo unspecified)")
"> 10 µM"
>>> result("Oc1[nH]c2ccccc2c1N=Nc1c(F)c(F)c(F)c(F)c1F")
"> 100 µM"
>>> result("COC(=O)/C=c1\\s/c(=C\\C(=O)OC)c2ccccc12")
"> 100 µM"
>>> result("CCn1c(=O)c2nc(SC)sc2n(-c2ccccc2)c1=O")
"> 100 µM"
>>> result("c1ccc2c(c1)ccn1ccc3c4ccccc4nc-3c21")
"2.54 µM"
>>> result("O=c1oc2ccc(-c3ccc(F)cc3F)cc2c(=O)n1-c1ccc(Cl)c(C(F)(F)F)c1")
"4.76 µM"
>>> result("COc1ccc(C2C=C(c3ccc(Cl)cc3)N=C3SC=C(C)N32)c(Br)c1 (stereo unspecified)")
"18.1 µM"
>>> result("COC1CCC(=O)N1CN(C(C)=O)c1ccc(C)cc1 (stereo unspecified)")
"> 100 µM"
>>> result("COP(=O)(OC)/C(=C/c1cn(C(c2ccccc2)(c2ccccc2)c2ccccc2)cn1)NC=O")
"34.4 µM"
>>> result("CC/C=C/C[C@H](O)[C@H]1C[C@H]2O[C@H](CC(=O)OC)C[C@H]2O1")
"> 100 µM"
>>> result("CC(C)(C)C1=CC(=C2C=Cc3ccccc3O2)C=C(C(C)(C)C)C1=O")
"4.71 µM"
>>> result("O=S(=O)(O)c1ccc2c(N=Nc3ccc(Cl)cc3)c(O)ccc2c1")
"> 100 µM"
>>> result("COc1ccc(/C=C\\c2cc(OC)c(OC)c(OC)c2)cc1OCC(=O)Nc1ccc2nc(C)sc2c1")
"19.1 µM"
>>> result("CCN(CC)CCn1[nH]c2c3ccc(=O)cc3sc3c(NCCN)ccc1c32")
"2.69 µM"
>>> result("COc1ccc2c3c1OC1C34CCN(C)C(C2)C4=CC(I)C1(OC)OC (stereo unspecified)")
"30.3 µM"
>>> result("COc1ccc2nc3n(c2c1)C(=O)c1ccccc1-3")
"> 100 µM"
>>> result("COc1cc(NCCN=C(N)NC(N)=NC(C)C)c2ncccc2c1")
"7.36 µM"
>>> result("Cc1ccc(NCCN(C)C)c2c(=O)c3ccccc3sc12")
"4.31 µM"
>>> result("NNC(=O)c1ccc(OCc2nc3ccccc3[nH]2)cc1")
"> 100 µM"
>>> result("CCOC(=O)C1([Se]c2ccccc2)CCCC1=O (stereo unspecified)")
"> 100 µM"
>>> result("CN(C(=O)Cc1cc(Cl)c(Cl)cc1NC(=O)CN)[C@H]1CCCC[C@@H]1N1CCCC1")
"35.7 µM"
>>> result("O=c1cc(-c2ccccc2)oc2cc(OC/C(=N/O)c3ccc(F)cc3)ccc12")
"> 50 µM"
